Target: T1, recombinant human PAD4 (human, UniProt Q9UM07 1-663)
T1 construct: also called rhPAD4; hPAD4
T1 sequence (Q9UM07 whole entry): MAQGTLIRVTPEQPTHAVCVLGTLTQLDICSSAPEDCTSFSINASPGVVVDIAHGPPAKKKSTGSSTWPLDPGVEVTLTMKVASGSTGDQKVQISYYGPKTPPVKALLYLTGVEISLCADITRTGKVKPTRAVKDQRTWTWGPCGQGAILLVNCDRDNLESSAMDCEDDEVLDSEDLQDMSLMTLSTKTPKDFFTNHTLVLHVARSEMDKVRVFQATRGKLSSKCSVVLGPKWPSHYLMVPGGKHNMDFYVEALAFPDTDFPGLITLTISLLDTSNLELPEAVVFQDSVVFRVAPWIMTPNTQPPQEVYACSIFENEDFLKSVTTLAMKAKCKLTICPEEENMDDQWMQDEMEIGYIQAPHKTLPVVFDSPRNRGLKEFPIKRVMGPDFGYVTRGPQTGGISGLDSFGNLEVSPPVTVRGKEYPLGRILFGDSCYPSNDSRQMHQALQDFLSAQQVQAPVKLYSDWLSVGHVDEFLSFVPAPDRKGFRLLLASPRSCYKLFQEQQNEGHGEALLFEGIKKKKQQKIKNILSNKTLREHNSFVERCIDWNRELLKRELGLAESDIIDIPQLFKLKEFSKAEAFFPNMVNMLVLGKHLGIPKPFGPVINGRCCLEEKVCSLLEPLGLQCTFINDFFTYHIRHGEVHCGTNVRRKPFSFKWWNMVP
Experiment: SPR 37 C, captured antibody, PAD4 analyte, 1 mM CaCl2
ATTRIBUTE_MEASURED: kon (M⁻¹ s⁻¹)
Give your result in M⁻¹ s⁻¹ as a bare value.

Sample records with kon:
hz20-9 (antibody, V domains shown, light constant region not tied to this antibody) VH: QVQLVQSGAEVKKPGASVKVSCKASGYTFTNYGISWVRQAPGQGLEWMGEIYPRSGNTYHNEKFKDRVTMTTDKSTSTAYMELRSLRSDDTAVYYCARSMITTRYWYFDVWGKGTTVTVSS VL: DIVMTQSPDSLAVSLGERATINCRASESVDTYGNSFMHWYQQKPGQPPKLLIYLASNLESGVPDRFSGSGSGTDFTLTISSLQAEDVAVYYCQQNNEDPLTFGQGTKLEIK : 490000
hz20-5 (antibody, V domains shown, light constant region not tied to this antibody) VH: QVQLVQSGAEVKKPGASVKVSCKASGYTFTNYGISWVRQRPGQGLEWIGEIYPRSGNTYHNEKFKDRVTMTADTSTSTVYMELSSLRSEDTAVYYCARSMITTRYWYFDVWGKGTTVTVSS VL: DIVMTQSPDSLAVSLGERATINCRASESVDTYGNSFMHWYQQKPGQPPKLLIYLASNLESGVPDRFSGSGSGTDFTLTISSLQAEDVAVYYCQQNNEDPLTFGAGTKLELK : 250000

Pending binder:
For the binder shown here, hz20-6 (antibody, V domains shown, light constant region not tied to this antibody) VH: QVQLVQSGAEVKKPGASVKLSCKATGYTFTNYGISWVRQAPGQGLEWIGEIYPRSGNTYHNEKFKDRVTLTADKSSSTAYMEFRSLRSDDTAVYFCARSMITTRYWYFDVWGQGTLVTVSS VL: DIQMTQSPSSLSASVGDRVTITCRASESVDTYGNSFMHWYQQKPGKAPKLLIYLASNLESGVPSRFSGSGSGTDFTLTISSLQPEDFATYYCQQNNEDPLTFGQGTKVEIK , give the reported kon. 390000
